TEST TARGET: Human Full Length PARG (Homo sapiens (Human), UniProt Q86W56)
Sequence (Q86W56 whole entry): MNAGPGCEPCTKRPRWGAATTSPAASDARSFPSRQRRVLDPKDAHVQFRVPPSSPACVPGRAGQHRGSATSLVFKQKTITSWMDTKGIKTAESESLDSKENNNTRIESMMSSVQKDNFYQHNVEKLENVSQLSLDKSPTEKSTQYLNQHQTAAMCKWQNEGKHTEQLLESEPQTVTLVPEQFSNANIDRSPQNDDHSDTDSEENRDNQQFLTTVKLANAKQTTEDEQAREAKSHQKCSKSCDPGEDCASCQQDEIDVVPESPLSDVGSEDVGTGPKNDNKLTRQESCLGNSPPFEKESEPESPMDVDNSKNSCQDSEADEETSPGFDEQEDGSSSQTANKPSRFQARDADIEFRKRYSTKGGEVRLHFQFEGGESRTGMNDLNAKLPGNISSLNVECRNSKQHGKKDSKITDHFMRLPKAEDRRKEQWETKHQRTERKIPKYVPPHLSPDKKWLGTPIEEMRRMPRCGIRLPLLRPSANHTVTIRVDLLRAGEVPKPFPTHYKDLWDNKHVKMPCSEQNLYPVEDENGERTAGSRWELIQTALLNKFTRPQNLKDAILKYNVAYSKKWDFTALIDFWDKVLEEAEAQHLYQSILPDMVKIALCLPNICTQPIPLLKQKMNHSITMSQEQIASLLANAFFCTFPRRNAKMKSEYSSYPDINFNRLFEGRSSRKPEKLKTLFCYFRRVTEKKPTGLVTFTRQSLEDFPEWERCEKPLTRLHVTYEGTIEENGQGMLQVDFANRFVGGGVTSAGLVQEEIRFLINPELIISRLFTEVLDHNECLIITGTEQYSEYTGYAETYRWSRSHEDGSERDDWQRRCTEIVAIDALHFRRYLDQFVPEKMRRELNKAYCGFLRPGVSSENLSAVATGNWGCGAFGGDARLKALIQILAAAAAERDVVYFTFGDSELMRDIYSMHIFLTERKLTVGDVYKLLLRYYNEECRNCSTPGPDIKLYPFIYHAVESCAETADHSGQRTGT
ASSAY SUMMARY: PARG enzyme assay (TR-FRET)
Type: biochemical
STATED CONDITIONS: read-out: PARG Biochem IC50
Field 'label' (enum: Satisfied / Not satisfied). Set to Satisfied when IC50 is strictly under 60 nM; else Not satisfied.

Cn1cc(Cn2c(=O)c3cc(S(=O)(=O)NC4(CF)CC4)ccc3n(Cc3ccns3)c2=O)cn1 [Example 578] :: Satisfied
Cc1cc(Cn2c(=O)c3cc(S(=O)(=O)NC4(CF)CC4)ccc3n(Cc3ccc(F)cc3)c2=O)on1 [Example 518] :: Not satisfied
Cn1c(=O)n(Cc2nnc(C(F)(F)F)o2)c(=O)c2cc(S(=O)(=O)NC3(C)CC3)ccc21 [Example 501] :: Not satisfied

API: query returns whether the molecule falls strictly under 60 nM in IC50. Query: Cn1cc(Cn2c(=O)c3cc(S(=O)(=O)NC4(CF)CC4)ccc3n(Cc3cnsc3)c2=O)cn1 [Example 577]
Satisfied

Also need Cn1cc(Cn2c(=O)c3cc(S(=O)(=O)NC4(CF)CC4)ccc3n(CCn3cccn3)c2=O)cn1 [Example 560] , thanks.
Not satisfied

Also need Cn1cc(Cn2c(=O)c3cc(S(=O)(=O)NC4(CF)CC4)ccc3n(CC(F)F)c2=O)cn1 [Example 600] , thanks.
Not satisfied

Also need Cn1cc(Cn2c(=O)c3cc(S(=O)(=O)NC4(C)CC4)ccc3n(CC(F)(F)F)c2=O)cn1 [Example 621] , thanks.
Not satisfied

Also need Cc1cc(Cn2c(=O)n(Cc3cnn(C)c3)c(=O)c3cc(S(=O)(=O)NC4(C(F)(F)F)CC4)ccc32)n(C)n1 [Example 485] , thanks.
Not satisfied

Also need Cn1cc(Cn2c(=O)c3cc(S(=O)(=O)NC4(CF)CC4)ccc3n(Cc3nncs3)c2=O)cn1 [Example 589] , thanks.
Satisfied

Also need CCn1cncc1Cn1c(=O)n(Cc2cnn(C)c2)c(=O)c2cc(S(=O)(=O)NC3(CF)CC3)ccc21 [Example 576] , thanks.
Satisfied

Also need Cn1cc(Cn2c(=O)c3cc(S(=O)(=O)NC4(CF)CC4)ccc3n(CC3CC3(F)F)c2=O)cn1 (stereo not drawn) [Example 443] , thanks.
Satisfied

Also need Cc1cc(Cn2c(=O)c3cc(S(=O)(=O)NC4(C)CC4)ccc3n(CC3CC(C)(C)C3)c2=O)on1 [Example 477] , thanks.
Not satisfied
